The origin of these recorded values is patent US20240190821A1.

The compounds listed here are annotated with their IC50.
Biological target: DCAF15 (Homo sapiens)
Assay: Binary interaction between compounds and DCAF15, HTRF competition assay
Format: binding
Conditions: HTRF competition with Alexa Fluor 647 tracer, His-tagged DCAF15 complex; read-out: DCAF15 IC50

CC(C)C(=O)Nc1cccc(CNS(=O)(=O)c2ccc(S(=O)(=O)Nc3ccc(Cl)c4c(Cl)c[nH]c34)cc2)c1 [Compound 13] :: < 20 µM
O=S(=O)(Nc1ccc(Cl)c2c(Cl)c[nH]c12)c1ccc(S(=O)(=O)N2CCNCC2)c(F)c1 [Compound 45] :: < 5 µM
Cc1ccc(NS(=O)(=O)c2ccc(S(=O)(=O)N3C[C@H]4C[C@@H](C3)N4)cc2)c2[nH]cc(C#N)c12 [Compound 94] :: < 20 µM
O=S(=O)(Nc1ccc(Cl)c2c(Cl)c[nH]c12)c1ccc(S(=O)(=O)N2CCCNCC2)cc1 [Compound 52] :: < 5 µM
CCCN(c1ccc(S(=O)(=O)Nc2ccc(Cl)c3c(Cl)c[nH]c23)cc1)S(=O)(=O)C1CCNCC1 [Compound 63] :: < 5 µM
O=S(=O)(Nc1ccc(Cl)c2c(Cl)c[nH]c12)c1ccc(S(=O)(=O)C2CCNCC2)cc1 [Compound 57] :: < 5 µM

--- query ---
**Q:** Determine its reported IC50: CCCN(c1ccc(S(=O)(=O)Nc2ccc(Cl)c3c(Cl)c[nH]c23)cc1)S(=O)(=O)N1CCN(C)CC1 [Compound 66]
**A:** < 5 µM

----------
Test system: HCT116 cells
Assay: HCT116 cell viability using CellTiter-Glo
Assay type: cell-based
Conditions: HCT116, 72 h, read-out: 3-Day CTG IC50 in HCT116
result.type: IC50

**Q:** Look up and state reported IC50 for Nc1ccc(S(=O)(=O)Nc2cnc3c(Cl)cccc3n2)cc1 [CQS, cloroquinoxaline sulfonamide, reference compound]
**A:** < 5 µM

----------
Target: DCAF15 (Homo sapiens, UniProt Q66K64)
Sequence (Q66K64 whole entry): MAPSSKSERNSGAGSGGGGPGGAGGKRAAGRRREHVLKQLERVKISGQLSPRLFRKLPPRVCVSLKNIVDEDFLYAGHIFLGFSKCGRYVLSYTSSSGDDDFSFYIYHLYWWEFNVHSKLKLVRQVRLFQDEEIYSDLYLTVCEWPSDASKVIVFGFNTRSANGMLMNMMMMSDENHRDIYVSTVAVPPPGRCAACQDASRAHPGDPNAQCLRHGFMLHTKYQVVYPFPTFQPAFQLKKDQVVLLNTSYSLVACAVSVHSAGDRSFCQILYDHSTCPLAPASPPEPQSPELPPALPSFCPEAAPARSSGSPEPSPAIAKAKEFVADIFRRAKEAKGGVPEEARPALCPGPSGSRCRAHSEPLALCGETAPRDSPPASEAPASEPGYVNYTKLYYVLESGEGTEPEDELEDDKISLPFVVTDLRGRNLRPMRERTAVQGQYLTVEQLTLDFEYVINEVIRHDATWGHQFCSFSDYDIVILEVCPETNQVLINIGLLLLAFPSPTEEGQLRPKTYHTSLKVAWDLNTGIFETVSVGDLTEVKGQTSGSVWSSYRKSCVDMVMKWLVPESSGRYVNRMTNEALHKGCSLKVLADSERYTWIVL
Sequence (Q16531 whole entry partner): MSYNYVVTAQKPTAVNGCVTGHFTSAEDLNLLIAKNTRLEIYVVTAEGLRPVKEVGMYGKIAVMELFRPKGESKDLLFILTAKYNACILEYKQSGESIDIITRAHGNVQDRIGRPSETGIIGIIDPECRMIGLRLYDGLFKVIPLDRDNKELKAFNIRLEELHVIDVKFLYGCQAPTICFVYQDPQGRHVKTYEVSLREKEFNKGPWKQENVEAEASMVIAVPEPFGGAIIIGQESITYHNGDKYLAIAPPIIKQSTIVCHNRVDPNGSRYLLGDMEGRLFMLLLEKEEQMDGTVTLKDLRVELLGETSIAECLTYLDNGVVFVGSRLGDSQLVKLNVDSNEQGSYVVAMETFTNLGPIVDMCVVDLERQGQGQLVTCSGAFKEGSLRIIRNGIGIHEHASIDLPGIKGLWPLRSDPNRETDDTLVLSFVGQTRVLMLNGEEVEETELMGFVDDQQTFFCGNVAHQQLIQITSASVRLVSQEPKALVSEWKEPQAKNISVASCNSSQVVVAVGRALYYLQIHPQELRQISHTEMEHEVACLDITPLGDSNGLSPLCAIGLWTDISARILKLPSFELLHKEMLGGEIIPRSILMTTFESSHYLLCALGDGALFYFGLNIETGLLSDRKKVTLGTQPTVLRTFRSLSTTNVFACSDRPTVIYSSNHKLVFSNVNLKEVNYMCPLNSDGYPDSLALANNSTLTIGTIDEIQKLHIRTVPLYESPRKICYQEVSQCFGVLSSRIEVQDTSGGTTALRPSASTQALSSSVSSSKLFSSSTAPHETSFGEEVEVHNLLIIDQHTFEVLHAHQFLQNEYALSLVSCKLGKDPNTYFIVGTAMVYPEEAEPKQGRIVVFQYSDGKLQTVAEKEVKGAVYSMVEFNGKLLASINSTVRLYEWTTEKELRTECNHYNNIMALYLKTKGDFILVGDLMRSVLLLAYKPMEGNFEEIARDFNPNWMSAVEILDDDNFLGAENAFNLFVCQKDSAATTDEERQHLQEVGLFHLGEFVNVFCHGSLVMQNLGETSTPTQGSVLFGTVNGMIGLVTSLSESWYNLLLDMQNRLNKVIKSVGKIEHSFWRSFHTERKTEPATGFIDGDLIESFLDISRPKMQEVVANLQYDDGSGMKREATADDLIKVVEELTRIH
Experiment: Binary interaction between compounds and DCAF15, HTRF competition assay
Assay type: binding
Conditions: HTRF competition with Alexa Fluor 647 tracer, His-tagged DCAF15 complex; read-out: DCAF15 IC50
pIC50: −log10 of the molar value.
# pIC50 annotations

These recorded examples may help you get a feel for the data.
O=S(=O)(Nc1ccc(Cl)c2c(Cl)c[nH]c12)c1ccc(S(=O)(=O)NC2CCOCC2)cc1 :: > 4.00
N#Cc1cccc(S(=O)(=O)Nc2ccc(I)c3c(Cl)c[nH]c23)c1 :: > 4.00
Cc1ccnc(CNS(=O)(=O)c2ccc(S(=O)(=O)Nc3ccc(Cl)c4c(Cl)c[nH]c34)cc2)c1 :: > 5.30

Turning now to a further record.
**Q:** # return recorded pIC50 for entry CCC(NS(=O)(=O)c1ccc(S(=O)(=O)Nc2ccc(Cl)c3c(Cl)c[nH]c23)cc1)c1ccc2c(c1)OCCO2 (stereo not shown)
**A:** > 4.70

----------
Molecular target: DCAF15 (Homo sapiens)
Test: Binary interaction between compounds and DCAF15, HTRF competition assay
Format: binding
Details: HTRF competition with Alexa Fluor 647 tracer, His-tagged DCAF15 complex; read-out: DCAF15 IC50
pIC50: −log10 of the molar value.
result.type: pIC50

Completed entries (count: 5):
CCCN(C(C)=O)c1ccc(S(=O)(=O)Nc2ccc(Cl)c3c(Cl)c[nH]c23)cc1 :: > 5.30
Cc1ccc(CCNS(=O)(=O)c2ccc(S(=O)(=O)Nc3ccc(Cl)c4c(Cl)c[nH]c34)cc2)o1 :: > 4.70
O=S(=O)(Nc1ccc(Cl)c2c(Cl)c[nH]c12)c1ccc(S(=O)(=O)N2CCC(n3ccnn3)C2)cc1 (stereo not shown) :: > 5.30
O=S(=O)(Nc1ccc(C2CC2)c2c(Cl)c[nH]c12)c1ccc(S(=O)(=O)N2CCNCC2)cc1 :: > 4.00
Cc1ccc(NS(=O)(=O)c2ccc(S(=O)(=O)N3CCN(C4COC4)CC3)cc2)c2[nH]cc(C#N)c12 :: > 4.70

**Q:** Please respond with reported pIC50 (system DCAF15 (Homo sapiens)) for CCN=S(=O)(c1ccc(S(=O)(=O)Nc2ccc(Cl)c3c(Cl)c[nH]c23)cc1)C1CCNCC1 (stereo not shown) .
**A:** > 5.30

**Q:** Find pIC50 for CN1CCC(S(=O)(=O)Nc2ccc(S(=O)(=O)Nc3ccc(Cl)c4c(Cl)c[nH]c34)cc2)CC1 on DCAF15 (Homo sapiens) and write it down.
**A:** > 4.00

----------
Biological target: DCAF15 (Homo sapiens, UniProt Q66K64)
Assay: Binary interaction between compounds and DCAF15, HTRF competition assay
Format: binding
Experimental: DCAF15 interactions with test compounds were monitored using HTRF competition assays (Cisbio, Bedford, MA). […] These two solutions were mixed and incubated for 15 min at room temperature. 9.8 ul of the tracer solution and 10 ul of the DCAF15/mAb Anti-6His-Eu cryptate Gold mixture were added sequentially to each well in the assay plate. Reaction mixtures with no DCAF15 added were included as positive controls. […]
IC50 values, listed per item

**Q:** State, for DCAF15 (Homo sapiens, UniProt Q66K64), measured IC50 of the compound listed here: O=S(=O)(F)c1ccc(S(=O)(=O)Nc2ccc(Cl)c3c(Cl)c[nH]c23)cc1
**A:** < 20 µM

**Q:** Fill: IC50 (DCAF15 (Homo sapiens, UniProt Q66K64)) for this compound O=S(=O)(Nc1ccc(Cl)c2c(Cl)c[nH]c12)c1ccc(S(=O)(=O)N2CCN(CCOCCc3ccccn3)CC2)cc1
**A:** < 20 µM

----------
# maps each entry to its pIC50
Molecular target: DCAF15 (Homo sapiens, UniProt Q66K64)
Test: Binary interaction between compounds and DCAF15, HTRF competition assay
Type: binding
Details: HTRF competition with Alexa Fluor 647 tracer, His-tagged DCAF15 complex; read-out: DCAF15 IC50
pIC50: −log10 of the molar value.

Known pIC50 results, listed for orientation:
COCCOCCCNS(=O)(=O)c1ccc(S(=O)(=O)Nc2ccc(Cl)c3c(Cl)c[nH]c23)cc1 :: > 4.70
Cc1nc2c(n1C)CCN(S(=O)(=O)c1ccc(S(=O)(=O)Nc3ccc(Cl)c4c(Cl)c[nH]c34)cc1)C2 :: > 5.30
O=S(=O)(Nc1ccc(Cl)c2c(Cl)c[nH]c12)c1ccc(C2(N3CCNCC3)COC2)cc1 :: > 5.30

**Q:** Tell me measured pIC50 for O=S(=O)(Nc1ccc(Cl)c2c(Cl)c[nH]c12)c1ccc(S(=O)(=O)N2CCC(Oc3cccnc3)CC2)cc1 please.
**A:** > 4.70

**Q:** Could you please provide reported pIC50 for CN1CCC(S(=O)(=O)c2ccc(S(=O)(=O)Nc3ccc(Cl)c4c(Cl)c[nH]c34)cc2)CC1 ? Thanks!
**A:** > 5.30

**Q:** Output measured pIC50 for this item: CCCC1CNCCN1S(=O)(=O)c1ccc(S(=O)(=O)Nc2ccc(Cl)c3c(Cl)c[nH]c23)cc1 (centres unmarked)
**A:** > 5.30

**Q:** For the compound Cc1cnc(CNS(=O)(=O)c2ccc(S(=O)(=O)Nc3ccc(Cl)c4c(Cl)c[nH]c34)cc2)cn1 , give its reported pIC50.
**A:** > 5.30

**Q:** Return the recorded pIC50 value; entry: N#Cc1cc(S(=O)(=O)Nc2ccc(Cl)c3c(Cl)c[nH]c23)ccc1S(=O)(=O)N1CCNCC1
**A:** > 5.30

----------
Recorded pEC50 by entry
Molecular target: DCAF15-RBM39 ternary complex (Homo sapiens, UniProt Q14498+Q66K64)
Construct: (RRM2)
Sequence (Q66K64 whole entry): as the sequence (Q66K64 whole entry) above
Sequence (Q14498 250-328 limits assumed): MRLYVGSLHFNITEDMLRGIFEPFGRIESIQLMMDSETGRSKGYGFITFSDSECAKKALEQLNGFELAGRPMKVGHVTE
Sequence (Q16531 whole entry partner): as the sequence (Q16531 whole entry partner) above
Assay: Compound-induced DCAF15-RBM39 ternary complex formation, AlphaLISA
Format: biochemical
Settings: AlphaLISA, His-tagged DCAF15 complex and biotin-carrying RBM39; read-out: Ternary-RBM39 (RRM2) EC50
pEC50: −log10 of the molar value.

Some compounds with recorded pEC50:
O=S(=O)(Nc1ccc(Cl)c2c(Cl)c[nH]c12)c1ccc(C2(N3CCNCC3)CC2)cc1 [Compound 59] :: > 6.00
O=S(=O)(Nc1ccc(Cl)c2c(Cl)c[nH]c12)c1ccc(S(=O)(=O)C2CCNCC2)cc1 [Compound 57] :: > 6.00
O=S(=O)(Nc1ccc(Cl)c2c(Cl)c[nH]c12)c1ccc(S(=O)(=O)N2CCC(n3ccnn3)C2)cc1 (stereo not shown) [Compound 36] :: > 5.30
CCN=S(=O)(c1ccc(S(=O)(=O)Nc2ccc(Cl)c3c(Cl)c[nH]c23)cc1)N1CCNCC1 (stereo not shown) [Compound 69] :: > 6.00
COc1cccc(Oc2ccc(CNS(=O)(=O)c3ccc(S(=O)(=O)Nc4ccc(Cl)c5c(Cl)c[nH]c45)cc3)cn2)c1 [Compound 17] :: > 4.70
Cc1ccc(NS(=O)(=O)c2ccc(S(=O)(=O)N3CCCC(N)C3)cc2)c2[nH]cc(C#N)c12 (stereo not shown) [Compound 82] :: > 6.00

**Q:** Provide measured pEC50 value, entry: N#Cc1cc(S(=O)(=O)Nc2ccc(Cl)c3c(Cl)c[nH]c23)ccc1S(=O)(=O)N1CCNCC1 [Compound 43]
**A:** > 6.00
